Test system: stable HCV 1b RLuc replicon cells (genotype 1b Con1 replicon)
Assay: HCV replicon RLuc reporter assay, genotype 1b
Format: cell-based
Settings: Hepatitis C virus; genotype 1b replicon, 72 hours
measurement-kind: log10 EC50 (log10 of the value in nM)
Scale type: logarithmic (base 10). Underlying EC50 unit: nM.

## Task For the record COC[C@H]1C[C@@H](c2ncc(-c3ccc(-c4ccc(-c5cnc([C@@H]6CC[C@H](C)N6C(=O)[C@@H](NC(=O)OC)C6CCOCC6)[nH]5)cc4)cc3)[nH]2)N(C(=O)[C@@H](NC(=O)OC)C2CCOCC2)C1 [Example AJ] , what value of log10 EC50 is listed for stable HCV 1b RLuc replicon cells (genotype 1b Con1 replicon)?
## Result -0.42

## Task Another compound: COC[C@H]1C[C@@H](c2ncc(-c3ccc(-c4ccc(-c5[nH]c([C@@H]6CC[C@H](C)N6C(=O)[C@@H](NC(=O)OC)C(C)C)nc5Cl)cc4)cc3)[nH]2)N(C(=O)[C@@H](NC(=O)OC)C(C)C)C1 [AH]
## Result -1.40

## Task Another compound: COC[C@H]1C[C@@H](c2nc(Cl)c(-c3ccc(-c4ccc(-c5cnc([C@@H]6CC[C@H](C)N6C(=O)[C@@H](NC(=O)OC)C(C)C)[nH]5)cc4)cc3)[nH]2)N(C(=O)[C@@H](NC(=O)OC)C(C)C)C1 [AI]
## Result -1.55

## Task Another compound: COC[C@H]1C[C@@H](c2ncc(-c3ccc(-c4ccc(-c5cnc([C@@H]6CC[C@H](C)N6C(=O)[C@@H](NC(=O)OC)C6CCOCC6)[nH]5)cc4)cc3)[nH]2)N(C(=O)[C@@H](NC(=O)OC)C(C)C)C1 [Example AL]
## Result -1.13

## Task Another compound: COC[C@H]1C[C@@H](c2ncc(-c3ccc(-c4ccc(-c5cnc([C@@H]6CC[C@H](C)N6C(=O)[C@@H](NC(=O)OC)C(C)C)[nH]5)cc4)cc3)[nH]2)N(C(=O)[C@@H](NC(=O)OC)C2CCOCC2)C1 [Example AN]
## Result -1.19

## Task Another compound: COC[C@H]1C[C@@H](c2nc(Cl)c(-c3ccc(-c4ccc(-c5[nH]c([C@@H]6CC[C@H](C)N6C(=O)[C@@H](NC(=O)OC)C(C)C)nc5Cl)cc4)cc3)[nH]2)N(C(=O)[C@@H](NC(=O)OC)C(C)C)C1 [Example AG]
## Result -1.72
